target: BRD4(1) (Homo sapiens); assay: Isothermal titration calorimetry (ITC); settings: ITC Kd BRD4(1), 15 °C
measuredEndpoint: Kd (nM)

Cc1noc(C)c1-c1ccc2c(c1)nc(CCn1ccc3ccccc31)n2C[C@H](C)N1CCOCC1 [Compound 61] ... 530
COc1ccc(CCc2nc3cc(-c4c(C)noc4C)ccc3n2CCN2CCOCC2)cc1F [Compound 33] ... 440
Cc1noc(C)c1-c1ccc2c(c1)nc(CCn1ccc3ccccc31)n2CCN1CCOCC1 [Compound 36] ... 660

I: COc1ccc(CCc2nc3cc(-c4c(C)noc4C)ccc3n2C[C@H](C)N2CCOCC2)cc1F [Compound 63]
II: Cc1noc(C)c1-c1ccc2c(c1)nc(CCc1ccccc1)n2CCN1CCOCC1 [Compound 17]
Ask | Field: lower Kd | Options: I / II The response must carry the label of the picked entry.
Reply | I

---

target: BAZ2A (Homo sapiens); construct: using recombinant BRDs as surrogates of full-length protein; test: Peptide displacement AlphaScreen
Sequence (Q9UIF9 1793-1897 limits assumed): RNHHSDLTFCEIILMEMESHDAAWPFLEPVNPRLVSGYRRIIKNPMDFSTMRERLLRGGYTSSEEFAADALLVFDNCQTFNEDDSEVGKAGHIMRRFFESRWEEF
measuredEndpoint: pIC50
In simple prose, pIC50 is minus the logarithm base ten of a concentration in moles per litre.

Result for `Cc1noc(C)c1-c1ccc2c(c1)nc(CCc1ccccc1)n2CCN1CCN(C)CC1` , tested on BAZ2A (Homo sapiens), pIC50: 4.85

---

target: ATAD2 (Homo sapiens); construct: using recombinant BRDs as surrogates of full-length protein; test: Peptide displacement AlphaScreen
Sequence (Q6PL18 980-1092 limits assumed): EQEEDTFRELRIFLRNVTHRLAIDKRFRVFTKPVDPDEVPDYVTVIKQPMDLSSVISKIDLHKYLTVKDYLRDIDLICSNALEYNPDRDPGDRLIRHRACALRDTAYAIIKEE
pIC50: −log10 of the molar value.
measuredEndpoint: pIC50

a: Cc1noc(C)c1-c1ccc2c(c1)nc(CCc1ccccc1)n2CCN1CCOCC1
b: Cc1noc(C)c1-c1ccc2c(c1)nc(CCc1ccccc1)n2CCN1CCN(C)CC1
Ask | Which shows the larger pIC50 value: a or b ? The response must carry the label of the picked entry.
Reply | b

---

biological target: CBP (Homo sapiens); assay: Peptide displacement AlphaScreen; format: binding; conditions: mean ± SEM (number of measurements); read-out: CBP AlphaScreen pIC50 (converted)
Sequence (Q92793 1085-1192 limits assumed): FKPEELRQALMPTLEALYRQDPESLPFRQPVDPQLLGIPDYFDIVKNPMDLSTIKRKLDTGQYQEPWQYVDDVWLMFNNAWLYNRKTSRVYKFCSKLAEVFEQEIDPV
measuredEndpoint: IC50 (µM)

Cc1noc(C)c1-c1ccc2c(c1)nc(CCc1ccccc1)n2CCN(C)C ... 0.501

P: Cc1noc(C)c1-c1ccc2c(c1)nc(CCc1ccccc1)n2CCN1CCOCC1
Q: Cc1noc(C)c1-c1ccc2c(c1)nc(CC(C)(C)C)n2CCN(C)C
Ask | Field: lower IC50 | Options: P / Q The response must carry the label of the picked entry.
Reply | P
(P: 0.158 µM, Q: 0.501 µM)

---

target: BRD4(1) (Homo sapiens, UniProt O60885)
pIC50: −log10 of the molar value.
measuredEndpoint: pIC50

I: Cc1noc(C)c1-c1ccc2c(c1)nc(CCc1ccccc1)n2CCN1CCC1
II: Cc1noc(C)c1-c1ccc2c(c1)nc(CCc1ccccc1)n2CCN1CCN(C)CC1
III: Cc1noc(C)c1-c1ccc2c(c1)nc(CCc1ccccc1)n2CCN1CCSCC1
IV: Cc1noc(C)c1-c1ccc2c(c1)nc(CCc1ccccc1)n2CCN1CCCCC1
Ask | Reorder the items by pIC50, least to greatest. # output: labels, in the requested order
Reply | I, III, II, IV

---

target: UniProt O60885; experiment: Isothermal titration calorimetry (ITC)
measuredEndpoint: ITC ∆H, BRD4(1) (kcal/mol)

Cc1noc(C)c1-c1ccc2c(c1)nc(CCc1nc3ccccc3s1)n2CCN1CCOCC1 ... -9.34
Cc1noc(C)c1-c1ccc2c(c1)nc(CCc1ccc(F)cc1)n2CCN1CCOCC1 ... -8.02
COc1ccc(CCc2nc3cc(-c4c(C)noc4C)ccc3n2CCN2CCOCC2)cc1Cl ... -9.99
Cc1noc(C)c1-c1ccc(NC[C@H](C)N2CCOCC2)c([N+](=O)[O-])c1 ... -8.50
Cc1noc(C)c1-c1ccc2c(c1)nc(CCc1ccccc1)n2CCN1CCCCC1 ... -5.86
Cc1ccc(CCc2nc3cc(-c4c(C)noc4C)ccc3n2CCN2CCOCC2)cc1 ... -8.74
Cc1noc(C)c1-c1ccc2c(c1)nc(CCn1ccc3ccccc31)n2C[C@H](C)N1CCOCC1 ... -9.21
COc1ccc(CCc2nc3cc(-c4c(C)noc4C)ccc3n2C[C@@H](C)N2CCOCC2)cc1F ... -9.15
Cc1noc(C)c1-c1ccc2c(c1)nc(CCn1ccc3ccccc31)n2C[C@@H](C)N1CCOCC1 ... -7.46

---

assay: Cytotoxicity assay; conditions: human, U2OS osteosarcoma cells
measuredEndpoint: CC50 at 24 h (µM)
Supply the numeric figure in µM, leaving out any unit text.

CC50 at 24 h in this record for `COc1ccc(CCc2nc3cc(-c4c(C)noc4C)ccc3n2C[C@H](C)N2CCOCC2)cc1Cl` : 80

---

molecular target: BRD4(1) (Homo sapiens, UniProt O60885); test: Isothermal titration calorimetry (ITC); conditions: from ITC Kd values
measuredEndpoint: Selectivity for CBP over BRD4(1)

Some solved entries appear below for comparison.
COc1ccc(CCc2nc3cc(-c4c(C)noc4C)ccc3n2C[C@H](C)N2CCOCC2)cc1F [Compound 63] ... 16-fold
Cc1noc(C)c1-c1ccc2c(c1)nc(CCc1ccccc1)n2CCN1CCOCC1 [Compound 17] ... 3.0 fold
Cc1noc(C)c1-c1ccc2c(c1)nc(CCn1ccc3ccccc31)n2C[C@H](C)N1CCOCC1 [Compound 61] ... 20-fold
COc1ccc(CCc2nc3cc(-c4c(C)noc4C)ccc3n2CCN2CCOCC2)cc1Cl [Compound 32] ... 17-fold
COc1ccc(CCc2nc3cc(-c4c(C)noc4C)ccc3n2CCN2CCOCC2)cc1F [Compound 33] ... 20-fold

Shift focus to the following entry.
Selectivity for CBP over BRD4(1) in this record for Cc1noc(C)c1-c1ccc2c(c1)nc(CCn1ccc3ccccc31)n2CCN1CCOCC1 [Compound 36] : 22-fold

---

biological target: CBP (Homo sapiens); assay: Isothermal titration calorimetry (ITC)
measuredEndpoint: ITC ∆H, CBP (kcal/mol)

1: Cc1noc(C)c1-c1ccc2c(c1)nc(CCn1ccc3ccccc31)n2C[C@@H](C)N1CCOCC1
2: Cc1noc(C)c1-c1ccc2c(c1)nc(CCc1ccccc1)n2CCN1CCCCC1
3: Cc1noc(C)c1-c1ccc(NC[C@H](C)N2CCOCC2)c([N+](=O)[O-])c1
Ask | Reorder the items by ITC ∆H, CBP, least to greatest. # output: labels, in the requested order
Reply | 3, 1, 2
(3: -14.0 kcal/mol, 1: -9.59 kcal/mol, 2: -5.76 kcal/mol)

---

Molecular target: BRD9 (Homo sapiens, UniProt Q9H8M2)
Construct: using recombinant BRDs as surrogates of full-length protein
Sequence (Q9H8M2 136-240 limits assumed): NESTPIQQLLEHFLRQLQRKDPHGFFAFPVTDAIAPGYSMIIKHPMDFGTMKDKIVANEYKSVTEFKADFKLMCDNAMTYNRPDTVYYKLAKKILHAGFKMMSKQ
Assay: Peptide displacement AlphaScreen
measuredEndpoint: IC50 (µM)
Supply the numeric figure in µM, leaving out any unit text.

IC50 in this record for Cc1noc(C)c1-c1ccc2c(c1)nc(CCc1ccccc1)n2CCN1CCCC1 [Compound 15] : 100

---

target: UniProt:Q92793; assay: Peptide displacement AlphaScreen; type: binding; details: read-out: AlphaScreen IC50 CBP
pIC50: −log10 of the molar value.
measuredEndpoint: pIC50

P: Cc1noc(C)c1-c1ccc2c(c1)nc(CCc1ccccc1)n2CCN1CCSCC1 [Compound 20]
Q: COC(Cn1c(CCc2ccccc2)nc2cc(-c3c(C)noc3C)ccc21)OC [Compound 13]
R: Cc1noc(C)c1-c1ccc2c(c1)nc(CCc1ccccc1)n2CCN1CCN(C)CC1 [Compound 18]
S: Cc1noc(C)c1-c1ccc2c(c1)nc(CCc1ccccc1)n2CCN1CCNCC1 [Compound 19]
Ask | Reorder the items by pIC50, least to greatest. # output: labels, in the requested order
Reply | Q, R, S, P

---

system: p53-driven luciferase activity in RKO cells; test: p53 luciferase reporter assay; type: cell-based, human; settings: compound 24 h then doxorubicin 0.3 μM 16 h, read-out: Inhibition of doxorubicin-induced p53-driven luciferase activity IC50
measuredEndpoint: IC50 (nM)
Supply the numeric figure in nM, leaving out any unit text.

IC50 in this record for COc1ccc(CCc2nc3cc(-c4c(C)noc4C)ccc3n2C[C@H](C)N2CCOCC2)cc1Cl [Compound 59] : 1500

---

target: BRD4(1) (Homo sapiens, UniProt O60885); assay: Isothermal titration calorimetry (ITC); conditions: At T = 298.15 K
measuredEndpoint: ITC 9T∆S, BRD4(1) (kcal/mol)

Some solved entries appear below for comparison.
COc1ccc(CCc2nc3cc(-c4c(C)noc4C)ccc3n2C[C@@H](C)N2CCOCC2)cc1F ... 0.978
Cc1noc(C)c1-c1ccc2c(c1)nc(CCn1ccc3ccccc31)n2C[C@@H](C)N1CCOCC1 ... -0.844
Cc1noc(C)c1-c1ccc2c(c1)nc(CCc1nc3ccccc3s1)n2CCN1CCOCC1 ... 1.240

A: Cc1noc(C)c1-c1ccc2c(c1)nc(CCc1ccc(F)cc1)n2CCN1CCOCC1
B: Cc1noc(C)c1-c1ccc2c(c1)nc(CCc1ccccc1)n2CCN1CCCCC1
Ask | Which shows the larger ITC 9T∆S, BRD4(1) value: A or B ? The response must carry the label of the picked entry.
Reply | A
(A: -0.331 kcal/mol, B: -2.15 kcal/mol)
